# TARGET OR SYSTEM: 5-hydroxytryptamine receptor 1B (Rattus norvegicus, UniProt P28564)
# Sequence (P28564 whole entry): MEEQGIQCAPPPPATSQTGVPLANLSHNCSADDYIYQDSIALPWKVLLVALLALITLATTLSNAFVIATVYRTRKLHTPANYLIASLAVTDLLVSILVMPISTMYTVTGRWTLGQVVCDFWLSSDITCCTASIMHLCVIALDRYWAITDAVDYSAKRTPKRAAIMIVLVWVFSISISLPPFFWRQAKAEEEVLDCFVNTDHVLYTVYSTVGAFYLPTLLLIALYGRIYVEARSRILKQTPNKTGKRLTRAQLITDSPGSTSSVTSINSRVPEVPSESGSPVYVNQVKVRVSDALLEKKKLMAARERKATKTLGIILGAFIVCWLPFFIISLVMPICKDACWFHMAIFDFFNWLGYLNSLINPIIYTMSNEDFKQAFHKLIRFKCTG
# Format: cell membranes, Wistar, Cerebral cortex, Membrane
# RECORDED CONDITIONS: read-out: IC50
molecules and their reported IC50

>  <MOLECULE>
OCCN1CCN(CCCN2c3ccccc3Sc3ccc(C(F)(F)F)cc32)CC1

>  <IC50 (nM)>
1910

$$$$
>  <MOLECULE>
CC(C)C[C@H]1C(=O)N2CCC[C@H]2[C@]2(O)O[C@](NC(=O)[C@@H]3C=C4c5cccc6[nH]c(Br)c(c56)C[C@H]4N(C)C3)(C(C)C)C(=O)N12

>  <IC50 (nM)>
103

$$$$
>  <MOLECULE>
CN1C[C@H](C(=O)N[C@]2(C)O[C@@]3(O)[C@@H]4CCCN4C(=O)[C@H](Cc4ccccc4)N3C2=O)C[C@@H]2c3cccc4[nH]cc(c34)C[C@H]21 [DIHYDROERGOTAMINE]

>  <IC50 (nM)>
0.846

$$$$
>  <MOLECULE>
CC[C@@H](CO)NC(=O)[C@@H]1C=C2c3cccc4c3c(cn4C)C[C@H]2N(C)C1 [METHYSERGIDE]

>  <IC50 (nM)>
177

$$$$
>  <MOLECULE>
O=c1n(CCCN2CCN(c3cccc(Cl)c3)CC2)nc2ccccn12

>  <IC50 (nM)>
1360

$$$$

Values from ChEMBL document CHEMBL1909046
